System: D54 ERlucT glycosylation luciferase reporter, luminescence, 24 h
Test: N-linked glycosylation inhibitors, luciferase reporter, dose response, D54 ERlucT cells, luminescence, cherry-picks (AID 624491);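 also: signal gain reflects blocked N-linked glycosylation of a luciferase reporter; actives raise luciferase signal so AC26 marks activators of the reporter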
What AC26 was measured for each of the following?

[Q] Could you please provide reported AC26 for NC(=O)c1cccc(Nc2nc(C(N)CCc3ccccc3)cs2)n1 (stereo unspecified) ? Thanks!
[A] 8640 nM

[Q] Report AC26 for `CC1(C)Cc2nc3sc4c(SCC(=O)NCc5ccccc5)ncnc4c3cc2CO1`
[A] 160 nM

[Q] Return reported AC26. Input compound: `CC(C)(C)S(=O)(=O)N1C[C@@H]2CC/C=C\C/C(c3ccccc3)=C\2[C@H]1CCO`
[A] 1050 nM

[Q] For the compound `CCc1ccc(N2C(=O)NC(=O)/C(=C\C=C\c3ccco3)C2=O)cc1` , give its measured AC26 value.
[A] 1280 nM

[Q] In one line, give reported AC26 of the entry `NS(=O)(=O)c1ccc(NC(=O)c2cccc3cc4ccccc4nc23)cc1` .
[A] 1320 nM

[Q] Report AC26 for `Nc1ccc(-c2cc(NC=O)c3ncc(-c4cccc(C(F)(F)F)c4)n3c2)cn1`
[A] 3430 nM

[Q] Dear colleague, please send me the reported AC26 for `O=C(N/N=C/c1ccco1)c1ccccc1OCc1ccccc1Cl` when you can.
[A] 1010 nM

[Q] Name the recorded AC26 of the compound listed here: `CCCn1nc(C(=O)N2CC(=O)Nc3ccccc32)c2ccccc2c1=O`
[A] 4890 nM

[Q] Give me measured AC26, please, for this compound: `COc1ccc(Nc2nc3cc(-c4sccc4C)sc3c(=O)n2C)cc1OC`
[A] 477 nM

[Q] Identify measured AC26 corresponding to COc1cc(NC(C(=O)Nc2cccc(C(C)=O)c2)c2ccccc2)cc(OC)c1OC (stereo unspecified)
[A] 890 nM

[Q] Note down AC26 recorded for COc1cc(F)ccc1-c1csc(C(NC(C)=O)c2cccc(F)c2)n1 (stereo unspecified)
[A] 206 nM

* * *

Kindly state AC26 for each of the entries shown.
Tested on: D54 ERlucT glycosylation luciferase reporter, luminescence, 24 h
Assay: N-linked glycosylation inhibitors, luciferase reporter, dose response, D54 ERlucT cells, luminescence, cherry-picks (AID 624491);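 also: signal gain reflects blocked N-linked glycosylation of a luciferase reporter; actives raise luciferase signal so AC26 marks activators of the reporter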

[Q] Item COc1cccc(C(NC(C)=O)c2nc(-c3ccccc3OC)cs2)c1 (stereo not given) : provide AC26
[A] 0.452 µM

[Q] Quickly give me recorded AC26 for COc1cc(C2CC(=O)Nc3cc(C)c(C)cc32)cc(OC)c1OC (stereo not given)
[A] 8.88 µM

[Q] State its AC26 for this compound: `O=C(Nc1ccccc1O)c1ccc(NC(=O)C2CC2)cc1`
[A] 4.33 µM

[Q] Entry CCCCCCC(=O)N(O)C1CC(=O)N(c2ccc(C)cc2)C1=O (stereo not given) needs its AC26 filled in; supply it.
[A] 3.99 µM

[Q] Find the measured AC26 of `COc1cc(/C=N/NC(=O)c2ccc(CSc3nc4ccccc4[nH]3)cc2)cc(OC)c1OC` and report it.
[A] 3.98 µM

* * *

Test system: D54 ERlucT glycosylation luciferase reporter, luminescence, 24 h
Assay: N-linked glycosylation inhibitors, luciferase reporter, dose response, D54 ERlucT cells, luminescence, cherry-picks (AID 624491);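 also: signal gain reflects blocked N-linked glycosylation of a luciferase reporter; actives raise luciferase signal so AC26 marks activators of the reporter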
assay_metric: AC26

[Q] Answer with the recorded AC26 of `COc1ccc(-c2cc3ccccc3oc2=O)cc1NC(=O)c1ccc([N+](=O)[O-])o1` only.
[A] 751 nM

[Q] Kindly indicate its recorded AC26. Item: `CCOC(=O)c1sc(Nc2nc(C)cc(C)n2)nc1C`
[A] 949 nM

[Q] Give reported AC26 value for `CCCOc1ccc2ccccc2c1/C=N/n1c(C)nnc1-n1nc(C)cc1C`
[A] 503 nM

[Q] Quick one: give measured AC26 for CC1(C(=O)NCCC(F)(F)F)Cc2c(-c3cccc(C(F)(F)F)c3)ccnc2O1 (stereo not given)
[A] 15200 nM

[Q] Recall and state the measured AC26 for `COc1ccc(OC)c2nc3c(C(=O)NCCN(C)C)cccc3nc12` .
[A] 187 nM

[Q] Tell us which AC26 value is on record for `Cc1noc(C)c1-c1ccc(C(=O)NCc2cccnc2)c2occc12`
[A] 4700 nM

[Q] Look up and report measured AC26 for this entry: `COc1ccccc1NS(=O)(=O)c1ccc(C(=O)Nc2ncccc2O)cc1`
[A] 7090 nM

[Q] Quickly give me recorded AC26 for `O=C(/C=C/c1ccccc1)c1ccccc1`
[A] 6780 nM

[Q] Identify measured AC26 associated with `O=C(/C=C/c1ccco1)Nc1nnc(-c2ccco2)s1`
[A] 310 nM

[Q] Input COc1cc(F)ccc1-c1csc(C(NC(C)=O)c2ccccc2)n1 (stereo not given) , output reported AC26.
[A] 11.1 nM

[Q] Read off the recorded AC26 for `COc1ccc(C(=O)/C=C2/C(=O)Nc3ccccc32)cc1OC`
[A] 714 nM

[Q] Note down AC26 recorded for `CCOC(=O)COc1cccc2c(=O)n(CC(=O)NCc3ccccc3)ccc12`
[A] 2540 nM

[Q] Please report the measured AC26 for CCCCCC(O)C=CC1C(O)CC(O)C1CC=CCCCC(=O)O (stereo not given)
[A] 7.83 nM

[Q] Respond only with AC26 recorded for `COc1cc2c(C(=O)N3CCN(c4cccc(Cl)c4)CC3)cn(C)c(=O)c2cc1OC`
[A] 3400 nM

[Q] # return recorded AC26 for entry `CC(C)c1ccc(OCc2ccc(C(=O)N3CCCC3)o2)cc1`
[A] 4230 nM

[Q] Answer with the recorded AC26 for the molecule listed here: Cc1ccc2nc(-c3ccccc3)cc(C(=O)N3CC(C)OC(C)C3)c2c1 (stereo not given)
[A] 2450 nM

[Q] // Input: `Cn1c(=O)n(C)c2cc(NS(=O)(=O)c3ccc(F)cc3)ccc21` . Output its AC26 only.
[A] 5290 nM

[Q] Retrieve AC26 measured for `Cc1cc(Nc2cc(Cl)cc(Cl)c2)nc(N)n1` and print it.
[A] 1280 nM

[Q] Give AC26 for the following molecule: COc1cc(C2c3[nH]c4ccccc4c3CC3COC(=O)N32)cc(OC)c1O (stereo not given)
[A] 780 nM

[Q] Tell me AC26 reported for NC(=O)c1cccc(-c2ccnc3c2CC(C(=O)NCc2ccccc2)O3)c1 (stereo not given)
[A] 2000 nM
